Entry source: PubChem BioAssay

subject.of.test: Albumin (Bos taurus) (UniProt P02769)
Sequence (P02769 whole entry, looked up): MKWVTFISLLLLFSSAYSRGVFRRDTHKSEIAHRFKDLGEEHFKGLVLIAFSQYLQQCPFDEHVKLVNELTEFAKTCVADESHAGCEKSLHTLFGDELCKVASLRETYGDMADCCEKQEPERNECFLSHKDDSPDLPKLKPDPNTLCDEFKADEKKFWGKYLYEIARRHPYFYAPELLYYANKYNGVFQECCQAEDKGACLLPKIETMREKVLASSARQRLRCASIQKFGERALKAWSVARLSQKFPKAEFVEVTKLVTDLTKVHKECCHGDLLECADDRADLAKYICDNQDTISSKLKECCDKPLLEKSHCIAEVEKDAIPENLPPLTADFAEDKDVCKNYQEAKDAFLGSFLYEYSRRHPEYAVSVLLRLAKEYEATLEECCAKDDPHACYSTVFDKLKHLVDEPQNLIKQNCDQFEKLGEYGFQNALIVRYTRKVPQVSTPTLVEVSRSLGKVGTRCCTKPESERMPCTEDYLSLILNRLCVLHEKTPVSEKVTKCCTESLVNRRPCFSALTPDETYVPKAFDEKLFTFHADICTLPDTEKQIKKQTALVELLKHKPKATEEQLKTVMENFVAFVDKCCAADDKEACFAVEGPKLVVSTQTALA
protocol.notes: bovine serum albumin binders on microarray, profiling panel, artefact control for SMM control protein annotation, biochemical, small-molecule microarray, Alexa647 label, 635/667 nm fluorescence (AID 1118);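 also: score merges 667 nm emission intensity and signal-to-noise per printed compound spot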
recorded.conditions: BSA-A647 binding, fluorescence 635 nm, higher = more signal
Parameter threshold = 0.3. Response is Satisfied when composite z-score meets or exceeds it, else Not satisfied.

>  <compound>
COc1c(C)cc(-c2cc3c(c(-c4ccc(Oc5ccccc5)cc4)n2)[Si](C(C)C)(C(C)C)OC3)cc1C

>  <group>
Not satisfied

$$$$
>  <compound>
NC(=O)NCC#Cc1ccc2c(c1)[C@]1(C(=O)N2)[C@H](C(=O)NC[C@H](O)c2ccccc2)[C@H]2C(=O)O[C@H](c3ccccc3)[C@H](c3ccccc3)N2[C@@H]1c1ccc(O)cc1

>  <group>
Satisfied

$$$$
>  <compound>
[N-]=[N+]=Nc1ccccc1C[C@]1(C(=O)NCCN2CCOCC2)N=C(c2ccc(OCCCO)cc2)O[C@H]1c1ccccc1

>  <group>
Satisfied

$$$$
>  <compound>
COc1ccc([Si](C)(C)[C@@H]2[C@@H](CCn3cc([C@H](O)c4ccccc4)nn3)O[C@]3(C(=O)N(Cc4ccc(N5C(=O)c6cccc7cccc5c67)cc4)c4ccccc43)[C@H]2C)cc1

>  <group>
Not satisfied

$$$$
>  <compound>
CC(=O)C1=CCC(c2ccccc2)N(S(=O)(=O)c2ccc(C)cc2)C1 (stereo unspecified)

>  <group>
Satisfied

$$$$
>  <compound>
C=CCC(OC(C)=O)[C@@H]1[C@@H](N(Cc2ccc(-c3ccccc3)cc2)C(=O)Cc2ccc(F)cc2)c2cc(OCCCO)ccc2N1C(=O)c1ccc2ccccc2n1 (stereo partly specified)

>  <group>
Satisfied

$$$$

---

We begin with a simple list: items and their reported composite z-score.
protocol.notes: binders of probe aFGF2 on microarray, primary screen, stem cell growth factor project, biochemical, small-molecule microarray, fluorescence 635/667 (AID 1067);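 also: measures binding of biotinylated aFGF2 protein to printed compounds on slides; z-score merges feature fluorescence and signal-to-noise across triplicate slides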
recorded.conditions: higher = more signal

>  <compound>
COC(=O)[C@]1(Cc2ccccc2N=[N+]=[N-])N=C(c2ccc(OCCCO)cc2)O[C@@H]1c1ccccc1N=[N+]=[N-]

>  <composite z-score>
-0.0512

$$$$
>  <compound>
O=C1C2C=CC(C(O)c3cccs3)N(Nc3ccccc3F)C2C(=O)N1c1ccccc1 (stereo not drawn)

>  <composite z-score>
-0.0951

$$$$
>  <compound>
N#Cc1ccc(NN2C(C(O)c3cccs3)C=CC3C(=O)N(c4ccccc4)C(=O)C32)cc1 (stereo not drawn)

>  <composite z-score>
0.0887

$$$$
>  <compound>
C=CC(COC(C)=O)NS(=O)(=O)c1ccc(Br)cc1 (stereo not drawn)

>  <composite z-score>
-0.105

$$$$
>  <compound>
O=C1C2C=CC(C(O)c3ccc(F)cc3)N(Nc3ccccc3)C2C(=O)N1c1ccccc1 (stereo not drawn)

>  <composite z-score>
0.0332

$$$$
>  <compound>
C=CC[C@]1(C(=O)N2CCOCC2)N=C(c2ccc(OCCCO)cc2)O[C@H]1c1ccccc1

>  <composite z-score>
0.0445

$$$$
>  <compound>
CC(=O)NCCCC[C@@H]1NC(=O)[C@H]2C[C@@H](C(=O)NCCCCCC[N+](C)(C)C)[C@@H](c3cccc(OCCO)c3)N2C1=O

>  <composite z-score>
-0.0894

$$$$
>  <compound>
CO[C@H]1O[C@H](CO)[C@@H](OC(=O)Nc2ccc3c(c2)OCO3)[C@H](OC(=O)Nc2ccccc2)[C@H]1OC(=O)Nc1ccccc1

>  <composite z-score>
0.0166

$$$$

---

protocol.notes: basal RPMI8226 mitochondrial membrane potential changes, profiling panel, cell-based, JC-1 fluorescence, 24 h, 100 nL compound (AID 1169); also: test concentration not given here
recorded.conditions: RPMI8226 myeloma, JC-1 mitochondrial potential fluorescence, higher = more signal
Threshold check on z-score: at or above 0.1 gives true, strictly below gives false.

>  <molecule>
CCCNC(=O)[C@@]1(c2ccc([N+](=O)[O-])cc2)CC(=O)N(CC23CC4CC(CC(C4)C2)C3)[C@@H]1c1ccc(CO)cc1

>  <group>
false

$$$$
>  <molecule>
C=C[C@H](COC(C)=O)N(Cc1ccc(OC(C)=O)c(OC)c1)S(=O)(=O)c1ccc(Br)cc1

>  <group>
true

$$$$
>  <molecule>
COCCOC(=O)N1C(=O)[C@@]2(c3cc(C#CCNC(N)=O)ccc31)[C@H](c1ccc(OCCO)cc1)N1[C@H](c3ccccc3)[C@H](c3ccccc3)OC(=O)[C@H]1[C@@H]2C(=O)N1CCc2cc(OC)c(OC)cc2C1

>  <group>
false

$$$$
>  <molecule>
CC(C)C(=C=CC[C@H](O)c1cccc(OCCO)c1)C[C@H](O)COCc1ccccc1

>  <group>
true

$$$$
>  <molecule>
COC(=O)[C@@]1(Cc2ccccc2)[C@H]2c3cc(C(=O)N4CCCC4)n(C)c3C[C@H]2CN1C(=O)c1ccccc1

>  <group>
false

$$$$
>  <molecule>
N#Cc1ccc(NN2C(C(O)c3cccs3)C=CC3C(=O)N(c4ccccc4)C(=O)C32)cc1 (configuration not stated)

>  <group>
true

$$$$

---

subject.of.test: Neurogenic locus notch homolog protein 3 (Homo sapiens) (UniProt Q9UM47)
Sequence (Q9UM47 whole entry, looked up): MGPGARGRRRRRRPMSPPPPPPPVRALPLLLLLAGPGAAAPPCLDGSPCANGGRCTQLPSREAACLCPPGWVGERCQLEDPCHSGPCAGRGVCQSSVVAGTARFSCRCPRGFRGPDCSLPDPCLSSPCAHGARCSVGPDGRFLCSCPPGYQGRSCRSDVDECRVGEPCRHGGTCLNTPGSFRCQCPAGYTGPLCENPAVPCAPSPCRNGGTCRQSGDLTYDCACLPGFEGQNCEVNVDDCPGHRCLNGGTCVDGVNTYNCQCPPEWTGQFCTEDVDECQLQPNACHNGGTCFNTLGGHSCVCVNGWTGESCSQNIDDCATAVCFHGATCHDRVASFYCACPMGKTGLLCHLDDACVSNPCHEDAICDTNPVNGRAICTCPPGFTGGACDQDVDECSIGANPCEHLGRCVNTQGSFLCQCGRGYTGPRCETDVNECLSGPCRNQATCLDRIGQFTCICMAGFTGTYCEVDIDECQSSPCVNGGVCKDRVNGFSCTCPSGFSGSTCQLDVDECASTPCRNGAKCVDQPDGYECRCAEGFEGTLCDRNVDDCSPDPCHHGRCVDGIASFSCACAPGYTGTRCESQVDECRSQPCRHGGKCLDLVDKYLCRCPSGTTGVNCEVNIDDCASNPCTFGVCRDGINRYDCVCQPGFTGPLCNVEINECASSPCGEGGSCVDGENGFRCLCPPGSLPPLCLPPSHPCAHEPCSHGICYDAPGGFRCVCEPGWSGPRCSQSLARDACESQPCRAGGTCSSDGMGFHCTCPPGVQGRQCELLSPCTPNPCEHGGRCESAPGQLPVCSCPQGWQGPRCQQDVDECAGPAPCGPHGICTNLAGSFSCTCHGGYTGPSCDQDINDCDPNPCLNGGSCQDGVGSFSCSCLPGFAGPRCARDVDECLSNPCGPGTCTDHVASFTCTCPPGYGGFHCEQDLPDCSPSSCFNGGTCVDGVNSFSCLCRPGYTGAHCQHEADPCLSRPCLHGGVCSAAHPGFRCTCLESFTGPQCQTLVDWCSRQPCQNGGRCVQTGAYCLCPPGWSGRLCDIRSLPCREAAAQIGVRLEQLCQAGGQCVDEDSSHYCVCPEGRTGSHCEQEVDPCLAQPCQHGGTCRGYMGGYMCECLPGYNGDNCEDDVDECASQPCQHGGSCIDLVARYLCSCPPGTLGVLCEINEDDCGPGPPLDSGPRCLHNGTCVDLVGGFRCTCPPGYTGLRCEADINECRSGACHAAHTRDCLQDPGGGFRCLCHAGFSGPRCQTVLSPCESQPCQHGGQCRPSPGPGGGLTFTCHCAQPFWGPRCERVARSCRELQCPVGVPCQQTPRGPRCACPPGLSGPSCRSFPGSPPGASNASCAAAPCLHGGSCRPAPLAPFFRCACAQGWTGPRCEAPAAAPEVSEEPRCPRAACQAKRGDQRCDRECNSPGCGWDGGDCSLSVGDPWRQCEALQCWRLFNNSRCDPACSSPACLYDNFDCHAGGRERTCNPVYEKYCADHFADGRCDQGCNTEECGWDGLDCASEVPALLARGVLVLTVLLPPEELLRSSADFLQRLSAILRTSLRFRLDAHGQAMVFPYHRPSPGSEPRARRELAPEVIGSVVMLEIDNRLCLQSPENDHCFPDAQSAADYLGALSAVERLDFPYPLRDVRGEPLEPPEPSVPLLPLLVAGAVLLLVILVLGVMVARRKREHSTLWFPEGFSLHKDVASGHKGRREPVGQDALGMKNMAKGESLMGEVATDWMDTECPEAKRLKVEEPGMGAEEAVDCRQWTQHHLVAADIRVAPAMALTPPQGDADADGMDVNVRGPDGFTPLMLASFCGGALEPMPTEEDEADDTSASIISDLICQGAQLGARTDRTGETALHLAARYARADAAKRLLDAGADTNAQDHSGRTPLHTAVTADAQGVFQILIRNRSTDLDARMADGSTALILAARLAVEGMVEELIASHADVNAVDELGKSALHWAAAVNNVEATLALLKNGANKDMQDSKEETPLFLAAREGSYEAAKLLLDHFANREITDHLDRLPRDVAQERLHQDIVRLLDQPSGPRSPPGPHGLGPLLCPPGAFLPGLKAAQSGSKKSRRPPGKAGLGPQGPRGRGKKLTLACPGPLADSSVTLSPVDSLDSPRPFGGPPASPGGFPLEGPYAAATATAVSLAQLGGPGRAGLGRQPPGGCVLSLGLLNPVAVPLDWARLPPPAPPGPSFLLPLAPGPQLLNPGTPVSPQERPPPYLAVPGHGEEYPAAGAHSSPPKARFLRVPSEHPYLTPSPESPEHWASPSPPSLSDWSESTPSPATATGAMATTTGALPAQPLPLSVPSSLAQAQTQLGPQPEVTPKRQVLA
protocol.notes: NOTCH3 binders on small-molecule microarray, primary screen, biochemical, 635/667 nm fluorescence (AID 1096)
recorded.conditions: NOTCH3 binding, 635 nm fluorescence, higher = more signal
assay.endpoint: composite z-score

>  <molecule>
O=C1[C@]2(CO)C=C(Br)[C@@H](C[C@@H]2c2ccccc2)[C@@]12CO2

>  <result>
0.224

$$$$
>  <molecule>
COCCCNC(=O)[C@@]1(c2ccc([N+](=O)[O-])cc2)CC(=O)N(CC23CC4CC(CC(C4)C2)C3)[C@@H]1c1ccc(CO)cc1

>  <result>
1.08

$$$$
>  <molecule>
CCOC(=O)C1=C[C@@H](CC)N(S(=O)(=O)c2ccc(C)cc2)[C@H]1c1ccccc1

>  <result>
1.1

$$$$
>  <molecule>
COC(=O)c1ccc(OC)c(/C=C\CC(OC(C)=O)c2ccccc2)c1 (stereo not given)

>  <result>
0.275

$$$$
>  <molecule>
CN(C)CCCCCCNC(=O)[C@H]1C[C@H]2C(=O)N[C@@H](CCCCN)C(=O)N2[C@H]1c1ccc(O)cc1

>  <result>
1

$$$$
>  <molecule>
O=C(CS)NCCCCCCNC(=O)[C@@H]1C[C@@H]2C(=O)N3CCC[C@H]3C(=O)N2[C@@H]1c1ccc(O)cc1

>  <result>
0.165

$$$$
>  <molecule>
C=CCOC(=O)[C@@H]1[C@H]2C(=O)O[C@H](c3ccccc3)[C@H](c3ccccc3)N2[C@H](c2ccc(OCCOC(=O)[C@@H]3C[C@@H]4C(=O)NCC(=O)N4[C@@H]3c3cccc(OCCO)c3)cc2)[C@@]12C(=O)Nc1ccc(I)cc12

>  <result>
1.1

$$$$
>  <molecule>
COc1cc(C(O)C2C=CC3C(=O)N(c4ccccc4)C(=O)C3N2Nc2ccc(C#N)cc2)cc(OC)c1OC (stereo not given)

>  <result>
1.03

$$$$
>  <molecule>
O=C1N(CCS(=O)(=O)c2ccccc2)Cc2ccccc2C[C@]12N=C(c1ccc(OCCCO)cc1)O[C@@H]2c1ccccc1

>  <result>
1.05

$$$$
>  <molecule>
CCCNC(=O)[C@@H]1c2ccccc2C(=O)N(Cc2ccccc2)[C@H]1c1ccc(CO)cc1

>  <result>
0.0163

$$$$
>  <molecule>
CC(=O)C1=CCC(c2ccccc2)N(S(=O)(=O)c2ccc(C)cc2)C1 (stereo not given)

>  <result>
0.821

$$$$
>  <molecule>
C=CCNC(=O)[C@@H]1[C@H]2C(=O)O[C@H](c3ccccc3)[C@H](c3ccccc3)N2[C@H](c2ccc(O)cc2)[C@@]12C(=O)N(C(=O)OCCOC)c1ccccc12

>  <result>
0.509

$$$$
>  <molecule>
CCOC(=O)C1=CC[C@@H](c2ccccc2Cl)N(S(=O)(=O)c2ccc(C)cc2)C1

>  <result>
1.04

$$$$
>  <molecule>
CCOC(=O)C[C@H]1[C@H](OC(=O)c2ccc(-c3ccccc3)cc2)[C@@H](NC(=O)c2ccc(-c3ccccc3)cc2)c2cc(OCCCO)ccc2N1C(=O)Cc1ccc(OC)cc1

>  <result>
-0.166

$$$$
>  <molecule>
O=C1C2C=CC(C(O)c3ccc(B(O)O)cc3)N(Nc3ccccc3)C2C(=O)N1c1ccccc1 (stereo not given)

>  <result>
-0.085

$$$$

---

protocol.notes: small-molecule binders of probe aNOTCH2, primary screen, biochemical, small-molecule microarray, 635/667 nm fluorescence (AID 1121);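 also: score merges feature fluorescence read at 667 nm with its signal to noise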
recorded.conditions: higher = more signal
Values of composite z-score greater than or equal to -0.05 map to criterion met; values below map to criterion not met.

>  <compound>
N#Cc1ccc(NN2C(C(O)c3cccs3)C=CC3C(=O)N(c4ccccc4)C(=O)C32)cc1 (configuration not stated)

>  <group>
criterion met

$$$$
>  <compound>
COC(=O)[C@@]1(Cc2ccccc2)[C@H]2c3cc(C(=O)N(C)C)n(Cc4c(-c5ccccc5)noc4C)c3C[C@H]2CN1C(=O)c1ccccc1

>  <group>
criterion met

$$$$
>  <compound>
C=CCOC(=O)[C@H]1[C@@H]2C(=O)O[C@@H](c3ccccc3)[C@@H](c3ccccc3)N2[C@@H](c2ccc(OCCOC(=O)[C@@H]3C[C@@H]4C(=O)NCC(=O)N4[C@@H]3c3ccc(O)cc3)cc2)[C@]12C(=O)Nc1ccccc12

>  <group>
criterion not met

$$$$
>  <compound>
O=C(CS)NCCCCCCNC(=O)[C@@H]1C[C@@H]2C(=O)N3CCC[C@H]3C(=O)N2[C@@H]1c1ccc(O)cc1

>  <group>
criterion not met

$$$$
>  <compound>
COCCCNC(=O)[C@@]1(CCC(=O)OC(C)(C)C)N=C(c2ccc(OCCCO)cc2)O[C@H]1c1ccccc1CN=[N+]=[N-]

>  <group>
criterion met

$$$$
>  <compound>
CCOC(=O)[C@H]1C/C=C/C[C@H](C(=O)OCC)C(=O)O[C@H]2[C@@H](OC)O[C@H](CO)[C@@H](OC(=O)Nc3ccc4c(c3)OCO4)[C@@H]2OC1=O

>  <group>
criterion met

$$$$
>  <compound>
COc1ccccc1CN1C(=O)c2ccccc2[C@@H](C(=O)NCCN2CCOCC2)[C@@H]1c1ccc(CO)cc1

>  <group>
criterion not met

$$$$
